study_system: Sodium-dependent serotonin transporter (Homo sapiens, UniProt P31645, G498C)
procedure_details: Decrease in [3H]5-HT uptake at human SERT G498C mutant transfected in HEK293 cells
parameter_measured: EC50 (µM)
Numbers only, in µM.

mol_smiles: C[n+]1ccc(-c2ccc(SS(C)(=O)=O)cc2)cc1
experimental_value: 3.98

Okay, now this compound:
Note to self: EC50 recorded for "C[N+](C)(C)CCSS(C)(=O)=O" was 3.16

====

study_system: Sodium-dependent serotonin transporter (Homo sapiens, UniProt P31645, C109A)
procedure_details: Inhibition of [3H]5-HT uptake at human SERT C109A mutant transfected in HEK cells
parameter_measured: Ki (µM)
Answers are plain numbers, in µM.

mol_smiles: C[n+]1ccc(-c2ccccc2)cc1
scale_unit: µM
Ki: 48

Okay, now this compound:
Note to self: Ki recorded for "C[n+]1ccc(-c2ccc(SS(C)(=O)=O)cc2)cc1" was 1300
